- Test system: Acinetobacter baumannii
- ASSAY TEXT: Potentiation of Clarithromycin antibacterial activity against Acinetobacter baumannii AB5075 assessed as clarithromycin MIC at 5 uM incubated for 16 hrs by broth microdilution method
- Format: functional
RECORDED METRIC: log10 MIC (log10 of the value in µg/mL)
Hey, these are logged values: log10 of MIC, µg/mL being the unit before logging.

Example entries begin here.
Cl.Cl.Nc1nc(-c2cc(F)cc(NC(=O)Nc3cc(F)cc(-c4c[nH]c(N)n4)c3)c2)c[nH]1: -0.30
Cl.Cl.Nc1nc(-c2cc(NC(=O)Nc3ccc(F)c(-c4c[nH]c(N)n4)c3)ccc2F)c[nH]1: 0.30
Nc1nc(-c2ccc(NC(=O)c3ccc(Cl)c(Cl)c3)cc2F)c[nH]1: 0.90
Nc1nc(-c2ccc(NC(=O)Nc3cc(Br)cc(Br)c3)cc2)c[nH]1: 0.60
Cl.Cl.Nc1nc(-c2ccc(NC(=O)Nc3ccc(-c4c[nH]c(N)n4)c(F)c3)cc2F)c[nH]1: 0.30

# lookup: log10 MIC of Nc1nc(-c2cccc(NC(=O)Nc3cccc(-c4c[nH]c(N)n4)c3)c2)c[nH]1
0.60

# lookup: log10 MIC of Cl.Cl.Nc1nc(-c2cc(F)cc(NC(=O)Nc3ccc(-c4c[nH]c(N)n4)c(F)c3)c2)c[nH]1
0.00

# lookup: log10 MIC of Cl.Cl.Nc1nc(-c2cccc(NC(=O)Nc3cc(F)cc(-c4c[nH]c(N)n4)c3)c2)c[nH]1
1.20

====

- ASSAY TEXT: Metabolic stability in human liver microsomes assessed as parent compound remaining in presence of NADPH measured at 1 hr by UV-UPLC analysis
- Type: ADME, Microsome
Tag: MET if measured Stability is not below 80%, NOT MET if it is.

Some entries whose results are on file:
Nc1nc(-c2ccc(NC(=O)Nc3cc(Br)cc(Br)c3)cc2)c[nH]1: NOT MET
Cl.Cl.Nc1nc(-c2cc(F)cc(NC(=O)Nc3cc(F)cc(-c4c[nH]c(N)n4)c3)c2)c[nH]1: MET
Cl.Cl.Nc1nc(-c2ccc(NC(=O)Nc3cccc(-c4c[nH]c(N)n4)c3F)cc2F)c[nH]1: MET
Nc1nc(-c2ccc(NC(=O)c3ccc(Cl)c(Cl)c3)cc2F)c[nH]1: NOT MET

// next entry
# bool: Stability of Nc1nc(-c2cccc(NC(=O)Nc3cccc(-c4c[nH]c(N)n4)c3)c2)c[nH]1 >= 80%
MET

====

Below is a list of entries, each paired with its recorded MIC value.
- System: Acinetobacter baumannii
- ASSAY TEXT: Potentiation of Azithromycin antibacterial activity against Acinetobacter baumannii AB5075 assessed as azithromycin MIC at 30 uM incubated for 16 hrs by broth microdilution method
- Format: functional
Report as a plain number; the unit µg/mL is understood.

Nc1nc(-c2cccc(NC(=O)Nc3cccc(-c4c[nH]c(N)n4)c3)c2)c[nH]1: 0.5
Cl.Cl.Nc1nc(-c2cc(F)cc(NC(=O)Nc3cc(F)cc(-c4c[nH]c(N)n4)c3)c2)c[nH]1: 0.5
Nc1nc(-c2ccc(NC(=O)Nc3cccc(-c4c[nH]c(N)n4)c3)cc2)c[nH]1: 1

# lookup: MIC of Cl.Cl.Nc1nc(-c2ccc(NC(=O)Nc3ccc(-c4c[nH]c(N)n4)c(F)c3)cc2F)c[nH]1
0.5

# lookup: MIC of Nc1nc(-c2ccc(NC(=O)Nc3ccc(-c4c[nH]c(N)n4)cc3)cc2)c[nH]1
0.5
